# koff annotations
target-under-test: T1, human HGF (R&D Systems, 294-HG/CF) (human, UniProt P14210 32-728)
T1 construct: The entry begins at QRKRR, without signal peptide; Amine-coupled to the chip in SPR and biotinylated in AlphaScreen; also called rec hHGF (R&D systems)
T1 sequence (P14210 32-728 limits assumed): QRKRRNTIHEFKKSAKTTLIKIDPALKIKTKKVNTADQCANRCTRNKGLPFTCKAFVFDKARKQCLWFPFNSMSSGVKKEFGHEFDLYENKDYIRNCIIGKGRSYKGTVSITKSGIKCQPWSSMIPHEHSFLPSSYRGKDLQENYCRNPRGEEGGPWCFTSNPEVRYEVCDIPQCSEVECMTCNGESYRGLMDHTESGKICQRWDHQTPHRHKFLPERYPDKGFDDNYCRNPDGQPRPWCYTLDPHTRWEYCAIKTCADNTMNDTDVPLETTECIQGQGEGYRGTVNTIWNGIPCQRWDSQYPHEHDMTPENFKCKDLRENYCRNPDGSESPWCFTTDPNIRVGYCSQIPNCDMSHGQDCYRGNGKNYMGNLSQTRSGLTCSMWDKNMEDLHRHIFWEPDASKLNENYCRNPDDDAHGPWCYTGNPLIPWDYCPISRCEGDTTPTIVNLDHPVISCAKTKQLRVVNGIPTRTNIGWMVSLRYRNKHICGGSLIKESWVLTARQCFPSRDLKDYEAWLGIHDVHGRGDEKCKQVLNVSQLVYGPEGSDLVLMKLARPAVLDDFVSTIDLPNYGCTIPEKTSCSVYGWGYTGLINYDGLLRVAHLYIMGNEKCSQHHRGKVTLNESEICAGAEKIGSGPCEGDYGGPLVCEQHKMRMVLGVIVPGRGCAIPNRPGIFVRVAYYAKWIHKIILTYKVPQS
method-summary: SPR (Biacore T100), HGF amine-coupled to CM5 chip, periplasmic extract at one dilution
attribute-measured: koff (s⁻¹)

>>> reading("9E6 (VHH, anti-HGF Nanobody clone, tested as periplasmic extract; not shown: c-myc and His6 tags) VHH: EVQLVESGGGLAQAGGSLRLSCAASGRSLSNYAMGWFRQAPGKEREIVCAISRSGSITTYADSVKGRFTIAKDNAANTVYLQMNSLKPEDTAAYYCAADPMYYGIPDQNWDYWGQGTQVTVSS")
0.00218
>>> reading("6E11 (VHH, anti-HGF Nanobody clone, tested as periplasmic extract; not shown: c-myc and His6 tags) VHH: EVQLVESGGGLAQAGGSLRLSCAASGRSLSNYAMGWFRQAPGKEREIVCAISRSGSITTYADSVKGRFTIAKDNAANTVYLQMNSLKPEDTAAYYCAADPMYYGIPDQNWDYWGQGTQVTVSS")
0.00168
>>> reading("5D10 (VHH, anti-HGF Nanobody clone, tested as periplasmic extract; not shown: c-myc and His6 tags) VHH: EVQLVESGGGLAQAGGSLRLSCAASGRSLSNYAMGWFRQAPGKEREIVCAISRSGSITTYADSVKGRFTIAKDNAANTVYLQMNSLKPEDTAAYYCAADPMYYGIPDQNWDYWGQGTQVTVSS")
0.00199
>>> reading("10G3 (VHH, anti-HGF Nanobody clone, tested as periplasmic extract; not shown: c-myc and His6 tags) VHH: EVQLVESGGGLVQAGGSLRLSCADSGRTFSSYAMGWFRQAPGKEREFVAGVNWSGDSTYYADSVKGRFTISRDNAKNTVYLQMNSLKPEDAAVYYCAADPVGRADLYEYDYWGQGTQVTVSS")
0.000377

The measured values listed here are drawn from patent US20150010546A1.
